Tested on: Escherichia coli TOP10
Assay: shrunken log2 fold change of peptide-encoding DNA abundance (4.5 h post-induction vs induction); higher = less antimicrobial activity (less host growth inhibition)
Details: time post-induction: 4.5 h; library: site-saturation at positions 5, 18, 19, 20
# shrunken log2 fold change per record follows
Lab note: write the figure by itself, no unit.

# Polymer sequence, Value
rows = [
    ("RRIRWRPPRLPRPRPRPHANPRP", -0.00914),
    ("RRIRARPPRLPRPRPRPNLPPRP", 0.158),
    ("RRIRVRPPRLPRPRPRPDIYPRP", -0.131),
    ("RRIRKRPPRLPRPRPRPATNPRP", 0.712),
    ("RRIRYRPPRLPRPRPRPPIPPRP", 0.31),
]

IN: Form: Entry = RRIRMRPPRLPRPRPRPVFPPRP | System = Escherichia coli TOP10 | shrunken log2 fold change = ____
OUT: 0.0941

IN: Form: Entry = RRIRIRPPRLPRPRPRPRNGPRP | System = Escherichia coli TOP10 | shrunken log2 fold change = ____
OUT: 0.103

IN: Form: Entry = RRIRGRPPRLPRPRPRPLKKPRP | System = Escherichia coli TOP10 | shrunken log2 fold change = ____
OUT: 0.195

====

System: Escherichia coli TOP10
Experiment: shrunken log2 fold change of peptide-encoding DNA abundance (4.5 h post-induction vs induction); higher = less antimicrobial activity (less host growth inhibition)
Settings: time post-induction: 4.5 h; library: site-saturation at positions 5, 18, 19, 20
# shrunken log2 fold change per record follows
Lab note: write the figure by itself, no unit.

Examples with their reported shrunken log2 fold change follow.
# Polymer sequence, shrunken log2 fold change
measured = [
    ("RRIRKRPPRLPRPRPRPTFYPRP", 0.11),
    ("RRIRFRPPRLPRPRPRPNMQPRP", -0.846),
    ("RRIRRRPPRLPRPRPRPDITPRP", 0.303),
    ("RRIRDRPPRLPRPRPRPEMRPRP", 1.29),
    ("RRIRVRPPRLPRPRPRPLRWPRP", 0.63),
    ("RRIRPRPPRLPRPRPRPIKTPRP", 0.0751),
    ("RRIRIRPPRLPRPRPRPILWPRP", -0.238),
    ("RRIRPRPPRLPRPRPRPITTPRP", -0.139),
    ("RRIRVRPPRLPRPRPRPGQRPRP", 0.0272),
    ("RRIRTRPPRLPRPRPRPNEIPRP", -0.128),
]

IN: Query: shrunken log2 fold change; subject: RRIRTRPPRLPRPRPRPEPNPRP
OUT: -0.0182

IN: Query: shrunken log2 fold change; subject: RRIRARPPRLPRPRPRPEHTPRP
OUT: 0.0124

IN: Query: shrunken log2 fold change; subject: RRIRLRPPRLPRPRPRPVNRPRP
OUT: 0.199

IN: Query: shrunken log2 fold change; subject: RRIRYRPPRLPRPRPRPILSPRP
OUT: -0.107

IN: Query: shrunken log2 fold change; subject: RRIRWRPPRLPRPRPRPSFCPRP
OUT: -0.136

IN: Query: shrunken log2 fold change; subject: RRIRGRPPRLPRPRPRPAHWPRP
OUT: 0.378

====

System: Escherichia coli TOP10
Test: shrunken log2 fold change of peptide-encoding DNA abundance (4.5 h post-induction vs induction); higher = less antimicrobial activity (less host growth inhibition)
Conditions: time post-induction: 4.5 h; library: site-saturation at positions 5, 18, 19, 20
# shrunken log2 fold change per record follows

Examples with their reported shrunken log2 fold change follow.
# Polymer sequence, Property measured, Value
records = [
    ("RRIRKRPPRLPRPRPRPPLWPRP", "shrunken log2 fold change", 0.931),
    ("RRIRRRPPRLPRPRPRPTILPRP", "shrunken log2 fold change", -0.0149),
    ("RRIRARPPRLPRPRPRPYRVPRP", "shrunken log2 fold change", -0.211),
]

IN: Form: Entry = RRIRTRPPRLPRPRPRPFPCPRP | System = Escherichia coli TOP10 | shrunken log2 fold change = ____
OUT: -0.197

IN: Form: Entry = RRIRNRPPRLPRPRPRPWVLPRP | System = Escherichia coli TOP10 | shrunken log2 fold change = ____
OUT: 0.0737

IN: Form: Entry = RRIRWRPPRLPRPRPRPNDKPRP | System = Escherichia coli TOP10 | shrunken log2 fold change = ____
OUT: -0.291

IN: Form: Entry = RRIRQRPPRLPRPRPRPPPRPRP | System = Escherichia coli TOP10 | shrunken log2 fold change = ____
OUT: 1.25

IN: Form: Entry = RRIRFRPPRLPRPRPRPAKQPRP | System = Escherichia coli TOP10 | shrunken log2 fold change = ____
OUT: -0.0234

IN: Form: Entry = RRIRGRPPRLPRPRPRPSIQPRP | System = Escherichia coli TOP10 | shrunken log2 fold change = ____
OUT: 0.176

IN: Form: Entry = RRIRMRPPRLPRPRPRPMGQPRP | System = Escherichia coli TOP10 | shrunken log2 fold change = ____
OUT: 0.579

IN: Form: Entry = RRIRLRPPRLPRPRPRPVTEPRP | System = Escherichia coli TOP10 | shrunken log2 fold change = ____
OUT: 0.0237

IN: Form: Entry = RRIRVRPPRLPRPRPRPHSKPRP | System = Escherichia coli TOP10 | shrunken log2 fold change = ____
OUT: -0.496

IN: Form: Entry = RRIRYRPPRLPRPRPRPYCWPRP | System = Escherichia coli TOP10 | shrunken log2 fold change = ____
OUT: -1.07

IN: Form: Entry = RRIRARPPRLPRPRPRPCTMPRP | System = Escherichia coli TOP10 | shrunken log2 fold change = ____
OUT: -0.207

IN: Form: Entry = RRIRMRPPRLPRPRPRPWFWPRP | System = Escherichia coli TOP10 | shrunken log2 fold change = ____;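 also: peptides expressed intracellularly from a pBAD plasmid library in pooled LB shake-flask culture, induced with 0.3% L-arabinose, DNA abundance read by NGS, three biological replicates, DESeq2 with apeglm shrinkage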
OUT: 0.221
